- System: PfAP2-EXP AP2 domain (GST-tagged)
- assay_text: gcPBM binding intensity (ln(normalized median fluorescence intensity)); higher = stronger DNA binding
In all, about 25,000 sequences were measured (“ln(normalized median fluorescence intensity)”: median about 8.6, highest 2% from about 10 on). This excerpt belongs to a sample that is enriched for the highest values.
metric: gcPBM binding intensity (ln)

macromolecule_sequence | study_system | metric | quantitative_result
CTTTTTTTTTTATGCACACACAATTATACATTCCTT [CACACA_site3877] | PfAP2-EXP AP2 domain (GST-tagged) | gcPBM binding intensity (ln) | 9.08
ATTATATTTCAATTATGTACATATAAAATGAATAAA [XGTACX_site4204] | PfAP2-EXP AP2 domain (GST-tagged) | gcPBM binding intensity (ln) | 8.43
ATTATAACACCTCCCCCCCTTTTTTTATGAAGACCA [CACACA_negctrl_site1043] | PfAP2-EXP AP2 domain (GST-tagged) | gcPBM binding intensity (ln) | 10.6
CATATACACGAACACACACACATATAAATAAATATA [CACACA_site6379] | PfAP2-EXP AP2 domain (GST-tagged) | gcPBM binding intensity (ln) | 8.73
AAACATATATACATATGTACATATATACATATATGT [XGTACX_site5779] | PfAP2-EXP AP2 domain (GST-tagged) | gcPBM binding intensity (ln) | 8.4
ATAAATAAAACAAAATGTACAAATATTCATATATTC [XGTACX_site1307] | PfAP2-EXP AP2 domain (GST-tagged) | gcPBM binding intensity (ln) | 8.49
TATATACATGCATATACACACATATATTTATTTATA [CACACA_site6327] | PfAP2-EXP AP2 domain (GST-tagged) | gcPBM binding intensity (ln) | 8.7
ATATATATATATTTATGTACATATTATTTATTCTTT [XGTACX_site6567] | PfAP2-EXP AP2 domain (GST-tagged) | gcPBM binding intensity (ln) | 9.94
TCTGTGTTTTTGGGTACACACAAATAGCTTGTATAT [CACACA_site4002] | PfAP2-EXP AP2 domain (GST-tagged) | gcPBM binding intensity (ln) | 8.72
TTTAATTTTCCCTTCACACATAATATATATCTGTAT [CACACA_site5370] | PfAP2-EXP AP2 domain (GST-tagged) | gcPBM binding intensity (ln) | 8.7
GTGAATATTAAAAAATGTACACAATTATATGTATAT [XGTACX_site4834] | PfAP2-EXP AP2 domain (GST-tagged) | gcPBM binding intensity (ln) | 8.49
TATTAATTAAACCATACACACATAATTTTTTTATAA [CACACA_site843] | PfAP2-EXP AP2 domain (GST-tagged) | gcPBM binding intensity (ln) | 8.21
GTTATATATATATATATATATATATATATTTTTTTT [GTGCAC_negctrl_site597] | PfAP2-EXP AP2 domain (GST-tagged) | gcPBM binding intensity (ln) | 8.84
AATATTATATATATGGGTACTAATTCCTTTAATTTC [XGTACX_site102] | PfAP2-EXP AP2 domain (GST-tagged) | gcPBM binding intensity (ln) | 8.15
TATATATATATATATATATATATTTTTATTATATAT [XGTACX_negctrl_site89] | PfAP2-EXP AP2 domain (GST-tagged) | gcPBM binding intensity (ln) | 10.2
AATATGATATATATATGTACATATATATAATATAAT [XGTACX_site3072] | PfAP2-EXP AP2 domain (GST-tagged) | gcPBM binding intensity (ln) | 8.52
TATTATGTTATATATTGTACATGTTTATTGAAACAA [XGTACX_site5605] | PfAP2-EXP AP2 domain (GST-tagged) | gcPBM binding intensity (ln) | 8.66
ATTCTTTATTATTCGCCACACACATATATATATATA [CACACA_site9009] | PfAP2-EXP AP2 domain (GST-tagged) | gcPBM binding intensity (ln) | 10.2
TATTCATGCATATACACACACATATATTTATATTTT [CACACA_site7786] | PfAP2-EXP AP2 domain (GST-tagged) | gcPBM binding intensity (ln) | 8.77
TCTTTATTATTCGCCACACACATATAAATATAAATA [CACACA_site7441] | PfAP2-EXP AP2 domain (GST-tagged) | gcPBM binding intensity (ln) | 8.88
GGCATACACGAACACACACACACACGCACATATATA [CACACA_site6426] | PfAP2-EXP AP2 domain (GST-tagged) | gcPBM binding intensity (ln) | 8.96
AATAAATAAGCAACATGTACATACAAATATATACAT [XGTACX_site8529] | PfAP2-EXP AP2 domain (GST-tagged) | gcPBM binding intensity (ln) | 8.48

---

- System: PfAP2-EXP AP2 domain (GST-tagged)
- assay_text: gcPBM binding intensity (ln(normalized median fluorescence intensity)); higher = stronger DNA binding
Over roughly 25,000 sequences, “ln(normalized median fluorescence intensity)” has its median near 8.6; the highest 2% begin near 10. The full list was thinned out, with the highest values kept by preference.

macromolecule_sequence | gcPBM binding intensity (ln)
AAAGGAAAAGTTGACTGTACATAAGTAAAAAATAAT [XGTACX_site788] | 9.15
ATATATGGAAAGAGTAGTACTATTATAGGGGTGTTA [XGTACX_site6785] | 8.95
GTAATATATACAAAATGTACAAAACAATAACATGAT [XGTACX_site8575] | 8.8
GCCATTAATTTATACACACACATTATGATTTTTTAT [CACACA_site754] | 8.86
ACATATTTTATTTTTTGTACACATATATTATTTTTT [XGTACX_site6528] | 8.99
ATATATTATTTCTAGTGTACATACCCATATATAATA [XGTACX_site8902] | 8.97

---

- System: PfAP2-EXP AP2 domain (GST-tagged)
- assay_text: gcPBM binding intensity (ln(normalized median fluorescence intensity)); higher = stronger DNA binding
Over roughly 25,000 sequences, “ln(normalized median fluorescence intensity)” has its median near 8.6; the highest 2% begin near 10. This excerpt belongs to a sample that is enriched for the highest values.

macromolecule_sequence | study_system | gcPBM binding intensity (ln)
ATGTTTATTTATTTATGTACTTATATATTTATATAT [XGTACX_site7924] | PfAP2-EXP AP2 domain (GST-tagged) | 8.78
ACTTTACAATATATATGTACATATTAATAAACATAT [XGTACX_site3689] | PfAP2-EXP AP2 domain (GST-tagged) | 8.74
ATATATTTCATTTTTGTACACACAACGTTGGAGGGT [CACACA_site8999] | PfAP2-EXP AP2 domain (GST-tagged) | 8.84
TCCCTAGTATACCTTAGTACATATATTATTTTGCAC [XGTACX_site2174] | PfAP2-EXP AP2 domain (GST-tagged) | 8.98
TTAAAAAAATATAATACACACCAAAAATATGCACAT [CACACA_site5209] | PfAP2-EXP AP2 domain (GST-tagged) | 8.85
TTGTATTATTATGTTGCACACATTTTATATAAAATA [CACACA_site3641] | PfAP2-EXP AP2 domain (GST-tagged) | 9.06
TTCTAATATTTTTGCACACTAAACAATAAATTTCCT [CACACA_site3944] | PfAP2-EXP AP2 domain (GST-tagged) | 8.88
TTGTTTCCTTAATATTCACACACATATATATAATAT [CACACA_site8553] | PfAP2-EXP AP2 domain (GST-tagged) | 8.89

---

- Test system: PfAP2-EXP AP2 domain (GST-tagged)
- assay_text: gcPBM binding intensity (ln(normalized median fluorescence intensity)); higher = stronger DNA binding
In all, about 25,000 sequences were measured (“ln(normalized median fluorescence intensity)”: median about 8.6, highest 2% from about 10 on). The sample holds the highest values, similar sequences and a random draw of the others, so the mix is not that of the screen.
Label rule, in plain words: gcPBM binding intensity (ln) of 9 and up is condition met, under 9 is condition not met.

macromolecule_sequence | group_label
ATATATATATATATAGTGCAAATAAAAAATAGACAA [GTGCAC_site9796] | condition met
TTTTTTAAATTTAAAGTGCATTATTATATATTTGTA | condition not met
ATTATTGTTTATTGATTTTTGTTAAAATAGGAAATT [GTGCAC_negctrl_site181] | condition not met
CACAAAAATAGACACACACACATATAAATAAATATA [CACACA_site6598] | condition not met
TCCTTTTTTAAAAGTTGTACATTATTGTTATTTGTT [XGTACX_site4686] | condition not met
AAAATAATAATAGGCACACATATATATATATATATA [CACACA_site2058] | condition met
GAATATTCACATACTTGTACATATATATATATATAT [XGTACX_site7302] | condition met
TATATATATATATAAACACACATAAATATAAATATA [CACACA_site1121] | condition met
AAAAAAAAAAAAAAAGTGCATATATAAATATTGTAT [GTGCAC_site9459] | condition not met
TTTTTTTGCTCTTTTTATATATATATATATATATAT [GTGCAC_negctrl_site70] | condition met
TAACTTCAAAAATCTTGTACATAAATATATAAAACA [XGTACX_site8574] | condition not met
ATATAAACACTGAATGCATGCACATATATATATATA [TGCATGCA_site940] | condition met
TGAAATGATATATAAACACACATATATAAATATGTA [CACACA_site7616] | condition not met
TTACAAATATTATAATGTACCCATTTTTTTTGCCTT [XGTACX_site6612] | condition not met
GGAAAAGGTATCCGTTCACACATAAATGGATACCAT [CACACA_site5072] | condition not met
ATAAATATATATATCACACATATATAATTATATATA [CACACA_site4787] | condition not met
TAAAAATATTTTCATTGTACATATATATAAATATAT [XGTACX_site1123] | condition not met
TATATATGTTAAAACGTGCACATATATATATATATA [GTGCAC_site9589] | condition met
TGAAATGATATATAAACACACATATATATATATATA [CACACA_site3511] | condition met
AATATAATATAATGCACACATAAAAAAAAAAAAATC [CACACA_site1303] | condition not met
AAAATTAATAAATAAACACACATATATATATATATA [CACACA_site2598] | condition met
GTGAAATTATATTTTTGTACATATATTATATATTAT [XGTACX_site3387] | condition not met
